# System: Escherichia coli ATCC 25922
# TEST NAME: microbe, parasite or virus in culture
# Type: cell-based
# CONDITION PARAMETERS: E. coli ATCC 25922; 96-well plate serial dilution, 10 µL inoculum of 2.2 × 10^6 CFU/mL, 37 °C, 16–18 h, OD600; ND = no detection at the highest tested concentration
Ends that are not written are not given here.
OBSERVED PROPERTY: E. coli MIC (µg/mL)

• GWINIIKIQKKRWW-NH2 [compound 3] = 128
• KKILGGMAKAVRWW-NH2 [compound 9] = 8
• KIQKKIIKKIGRWW-NH2 [compound 6] = 8
• VHKLAKGIFKRWW-NH2 [compound 12] = 4
